Test system: NIH-3T3 cells
test.name: Seahorse oxygen-consumption-rate assay (NIH3T3)
Type: cell-based, murine
protocol.conditions: Mus musculus
Friendly reminder: IC50 below 200 nM is T, at or above is F.

(Q) I'd appreciate it if you could check whether COc1ccccc1-n1cc(-c2ccc(-c3ccccc3)cc2)[n+]2c1CCCCC2 [Imidazolium 2] has IC50 smaller than 200 nM.
(A) T

(Q) Item COc1ccccc1C1=CN(c2ccc(-c3ccccc3)cc2)C2=NCCCCN12 [HPI-273] : IC50 beneath 200 nM, strictly?
(A) T

(Q) Item COc1ccccc1N1C=C(c2ccc(-c3ccccc3)cc2)N2CCCCN=C21 [HPI-269] : IC50 beneath 200 nM, strictly?
(A) F

(Q) Take the compound c1ccc(-c2ccc(-c3cn(C4CCCCC4)c4[n+]3CCCCC4)cc2)cc1 [Imidazolium 53] and say whether its IC50 is less than 200 nM.
(A) T

(Q) A record lists COc1ccccc1-c1ccc(-c2cn(-c3ccccc3OC)c3[n+]2CCCCC3)cc1.[Br-] [Imidazolium 8] . Is its IC50 below 200 nM?
(A) T

Next:
(Q) Would you kindly verify if IC50 of CCOc1ccc(N2C=C(c3ccc(-c4ccccc4)cc3)N3CCCCN=C32)cc1 [Guanidine 73] is strictly less than 200 nM?
(A) F

(Q) Please let me know if COc1ccccc1C1=CN(c2ccc(-c3ccccc3)cc2)C2=NCCCN12 [STL5-T-0002] shows IC50 below 200 nM.
(A) F
